Every entry's value here was drawn from patent US10149473B2.

Test system: Erysiphe graminis
Test: Fungicidal activity in preventive application (5 days) against Erysiphe graminis on wheat
Assay type: in vivo, Erysiphe graminis on wheat (Salgemma variety)
Details: 125 ppm, leaf spray, infection 5 days after treatment, evaluation after 12 days; percentage scale 100 = healthy plant, 0 = completely infected plant; treated parts (T)
property name: Activity T (parts treated directly with the products)
// no unit, no text: just the number

Here's what some known entries look like.
{"compound": "Cc1c(C(=O)Nc2ccc(F)c3c2CCC3(C)C)c(C(F)(F)F)nn1C", "test result": 25}
{"compound": "CC1CC(C)(C)c2cccc(NC(=O)c3cn(C)nc3C(F)F)c21 (stereo not shown)", "test result": 70}
{"compound": "CC1CC(C)(C)c2c(F)ccc(NC(=O)c3cn(C)nc3C(F)F)c21 (stereo not shown)", "test result": 95}

[Q] Which value of Activity T (parts treated directly with the products) has been reported for "Cc1nn(C)c(C)c1C(=O)Nc1c(F)ccc2c1CCC2(C)C" in the records?
[A] 10

----------
Measured Phytotoxicity by item
Test system: wheat plants
Test: Phytotoxicity (percentage of leaf necrosis) induced on wheat plants
Type: in vivo, wheat (Salgemma variety)
Details: 125 ppm on wheat, scale 0 = completely healthy plant to 100 = completely necrotized plant
Give the figure only, with no unit attached.

Before answering, review these 3 worked examples.
{"molecule": "CC1CC(C)(C)c2cccc(NC(=O)c3cn(C)nc3C(F)F)c21 (stereo not shown)", "Phytotoxicity": 10}
{"molecule": "Cc1c(C(=O)Nc2ccc(F)c3c2CCC3(C)C)c(C(F)(F)F)nn1C", "Phytotoxicity": 0}
{"molecule": "Cc1nn(C)c(C)c1C(=O)Nc1c(F)ccc2c1CCC2(C)C", "Phytotoxicity": 0}

[Q] What does the record list as Phytotoxicity for CC1CC(C)(C)c2c(F)ccc(NC(=O)c3cn(C)nc3C(F)F)c21 (stereo not shown) ?
[A] 0
